Data provenance: paper PMC9562371

target: m-OLF (myocilin OLF domain) (Homo sapiens, UniProt Q99972); test: surface plasmon resonance; format: binding
Sequence (Q99972 244-504): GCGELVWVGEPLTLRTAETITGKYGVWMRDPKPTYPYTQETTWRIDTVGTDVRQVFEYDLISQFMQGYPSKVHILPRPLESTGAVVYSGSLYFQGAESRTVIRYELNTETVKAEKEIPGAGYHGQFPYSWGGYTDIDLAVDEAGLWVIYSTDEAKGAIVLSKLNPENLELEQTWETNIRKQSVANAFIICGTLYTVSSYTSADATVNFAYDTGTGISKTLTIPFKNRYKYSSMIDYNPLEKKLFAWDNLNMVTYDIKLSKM
property name: pKd
pKd (log units): -log10 of the concentration in mol/L.

Which pKd is listed for O=C(O[C@@H]1Cc2c(O)cc(O)cc2O[C@@H]1c1ccc(O)c(O)c1)c1cc(O)c(O)c(O)c1 [ECG] ?
4.70
